- Test system: SNB-75
- Protocol: Growth inhibition of human SNB75 cells after 48 hrs by sulforhodamine B assay
- Assay type: functional
- Condition Details: SNB-75, 48 h
For each of the compounds below, state its GI50.
Provide only the numeric value, understood in nM.

Tell me the measured GI50 of "COCOc1cc(/C=C/c2cc(CO)c3c(c2)C[C@@H]2C(C)(C)[C@H](O)CC[C@@]2(C)O3)cc(OC)c1C/C=C(\C)CCC=C(C)C" , please.
263

For the compound "COc1cc(/C=C/c2cc3c(c(SC)c2)O[C@]2(C)CC[C@@H](O)C(C)(C)[C@H]2C3)cc(O)c1C/C=C(\C)CCC=C(C)C" , what GI50 is on record?
3800

Fill in: GI50 of "COc1cc(/C=C/c2cc(O)c3c(c2)C[C@@H]2C(C)(C)[C@H](O)CC[C@@]2(C)O3)cc(O)c1C/C=C(\C)CCC=C(C)C" is ___
123
